Origin of the recorded values: paper PMC8068820

target: human NTCP (Homo sapiens); construct: expressed in transfected cells; test: [3H]preS1 peptide; format: binding; details: 100 µM inhibitor where from Figure 6; SAR statements
parameter_measured: [3H]preS1 binding inhibition (in words)

Note to self: [3H]preS1 binding inhibition (in words) recorded for Nc1ccc([C@H](O)[C@H](c2ccccn2)[C@@H](Nc2ccccn2)c2ccccc2)cc1 was inactive

Note to self: [3H]preS1 binding inhibition (in words) recorded for O[C@H](c1ccccc1)[C@@H](c1ccccn1)[C@H](Nc1ccccc1)c1ccccc1 was inactive

###

Biological target: human NTCP (Homo sapiens)
Construct: expressed in transfected cells
Sequence (Q14973 1-349): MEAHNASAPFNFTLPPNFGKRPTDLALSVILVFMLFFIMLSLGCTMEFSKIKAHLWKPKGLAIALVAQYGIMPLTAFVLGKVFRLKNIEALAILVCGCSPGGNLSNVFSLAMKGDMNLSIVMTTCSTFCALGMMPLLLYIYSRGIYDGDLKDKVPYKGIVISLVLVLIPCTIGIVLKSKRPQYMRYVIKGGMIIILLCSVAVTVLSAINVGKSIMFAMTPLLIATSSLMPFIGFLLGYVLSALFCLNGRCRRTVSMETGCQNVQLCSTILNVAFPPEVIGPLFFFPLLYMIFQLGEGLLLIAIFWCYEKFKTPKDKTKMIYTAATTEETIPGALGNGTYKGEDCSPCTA
Assay: [3H]preS1 peptide
Type: binding
Conditions: 5 nM [3H]preS1, NTCP-HEK293 cells; read-out: IC50 [3H]preS1 binding inhibition (single value)
Listed here are compounds together with their documented IC50.
Express the result in µM but write the number alone.

Note to self: IC50 recorded for COc1ccc([C@H](O)[C@H](c2ccccn2)[C@@H](Nc2ccccn2)c2ccccc2)cc1 was 17

More entries:
Note to self: IC50 recorded for O[C@H](c1ccc([C@@H](O)[C@@H](c2ccccn2)[C@H](Nc2ccccn2)c2ccccc2)cc1)[C@@H](c1ccccn1)[C@H](Nc1ccccn1)c1ccccc1 was 7

###

molecular target: human NTCP (Homo sapiens); construct: expressed in transfected cells; test: [3H]preS1 peptide; type: binding; conditions: 100 µM inhibitor, 5 nM [3H]preS1, pre-screen; read-out: remaining [3H]preS1 binding compared to untreated control
parameter_measured: remaining activity at 100 µM

Note to self: remaining activity at 100 µM recorded for O=Cc1cccc([C@@H]([C@H](Nc2ccccn2)c2ccccc2)[C@@H](O)c2ccccc2)n1 [S985852] was < 50%

More entries:
Note to self: remaining activity at 100 µM recorded for O[C@H](c1ccc([C@@H](O)[C@@H](c2ccccn2)[C@H](Nc2ccccn2)c2ccccc2)cc1)[C@@H](c1ccccn1)[C@H](Nc1ccccn1)c1ccccc1 [S973509] was < 50%

###

Molecular target: human NTCP (Homo sapiens, UniProt Q14973)
Construct: expressed in transfected cells
Sequence (Q14973 1-349): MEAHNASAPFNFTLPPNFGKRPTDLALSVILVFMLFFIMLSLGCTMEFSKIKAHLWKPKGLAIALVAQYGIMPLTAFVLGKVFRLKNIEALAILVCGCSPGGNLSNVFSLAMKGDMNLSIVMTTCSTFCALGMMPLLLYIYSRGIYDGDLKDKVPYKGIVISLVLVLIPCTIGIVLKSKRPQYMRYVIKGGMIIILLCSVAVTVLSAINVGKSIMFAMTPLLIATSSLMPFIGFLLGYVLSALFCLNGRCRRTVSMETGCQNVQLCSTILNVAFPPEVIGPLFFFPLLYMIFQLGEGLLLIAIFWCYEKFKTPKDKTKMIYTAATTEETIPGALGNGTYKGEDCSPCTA
Test: [3H]preS1 peptide
Assay type: binding
Settings: 100 µM inhibitor where from Figure 6; SAR statements
parameter_measured: [3H]preS1 binding inhibition (in words)

Note to self: [3H]preS1 binding inhibition (in words) recorded for COc1ccc(N[C@H](c2ccccc2)[C@H](c2ccccn2)[C@H](O)c2ccccc2)nc1 was relatively high

Note to self: [3H]preS1 binding inhibition (in words) recorded for O[C@@H](c1ccccc1)[C@@H](c1ccccn1)[C@H](Nc1ccccn1)c1cccc2ccccc12 was relatively high

###

molecular target: human NTCP (Homo sapiens); construct: expressed in transfected cells; experiment: [3H]preS1 peptide; type: binding; settings: 95% confidence interval; inhibition of 5 nM [3H]preS1 binding, NTCP-HEK293 cells, 10 min, 37 °C; read-out: IC50 ([3H]preS1 Binding)
Listed here are compounds together with their documented IC50.

Tested system human NTCP (Homo sapiens); IC50 recorded for O[C@@H](c1ccccc1)[C@@H](c1ccccn1)[C@H](Nc1ccccn1)c1cccc2ccccc12 [S973515] was 39 to 148 µM

Tested system human NTCP (Homo sapiens); IC50 recorded for O=Cc1cccc([C@@H]([C@H](Nc2ccccn2)c2ccccc2)[C@@H](O)c2ccccc2)n1 [S985852] was 8 to 24 µM

More entries:
Tested system human NTCP (Homo sapiens); IC50 recorded for O[C@@H](c1ccccc1)[C@@H](c1ccccn1)[C@H](Nc1ccccn1)c1cccc(Br)c1 [A000289041] was 35 to 224 µM

Tested system human NTCP (Homo sapiens); IC50 recorded for O=C(Nc1ccc(Cl)cc1)c1cc(Oc2ccc(Cl)cc2)ccc1NS(=O)(=O)c1ccc(Cl)cc1 [A000028897] was 3 to 24 µM

Tested system human NTCP (Homo sapiens); IC50 recorded for O[C@H](c1ccccc1)[C@@H](c1ccc2ccccc2n1)[C@H](Nc1ccccn1)c1ccccc1 [A000295013] was 73 to 194 µM

Tested system human NTCP (Homo sapiens); IC50 recorded for COc1ccc(N[C@H](c2ccccc2)[C@H](c2ccccn2)[C@H](O)c2ccccc2)nc1 [A000295480] was 32 to 297 µM

Tested system human NTCP (Homo sapiens); IC50 recorded for O[C@H](c1ccc([C@@H](O)[C@@H](c2ccccn2)[C@H](Nc2ccccn2)c2ccccc2)cc1)[C@@H](c1ccccn1)[C@H](Nc1ccccn1)c1ccccc1 [S973509] was 3 to 10 µM

Tested system human NTCP (Homo sapiens); IC50 recorded for COc1ccc([C@H](O)[C@H](c2ccccn2)[C@@H](Nc2ccccn2)c2ccccc2)cc1 [A000295231] was 4 to 29 µM

###

biological target: human NTCP (Homo sapiens); construct: expressed in transfected cells; test: [3H]taurocholic acid ([3H]TC) transport inhibition in NTCP-HEK293 cells; type: cell-based; settings: 95% confidence interval; inhibition of 1 µM [3H]TC uptake, NTCP-HEK293 cells, 10 min, 37 °C; read-out: IC50 ([3H]TC Uptake)
pIC50: −log10 of the molar value.
parameter_measured: pIC50

Tested system human NTCP (Homo sapiens); pIC50 recorded for COc1ccc(N[C@H](c2ccccc2)[C@H](c2ccccn2)[C@H](O)c2ccccc2)nc1 was 2.88 to 3.84

Tested system human NTCP (Homo sapiens); pIC50 recorded for O=C(Nc1ccc(Cl)cc1)c1cc(Oc2ccc(Cl)cc2)ccc1NS(=O)(=O)c1ccc(Cl)cc1 was 4.21 to 4.80

Tested system human NTCP (Homo sapiens); pIC50 recorded for O[C@H](c1ccc([C@@H](O)[C@@H](c2ccccn2)[C@H](Nc2ccccn2)c2ccccc2)cc1)[C@@H](c1ccccn1)[C@H](Nc1ccccn1)c1ccccc1 was 3.11 to 3.69

Tested system human NTCP (Homo sapiens); pIC50 recorded for O[C@@H](c1ccccc1)[C@@H](c1ccccn1)[C@H](Nc1ccccn1)c1cccc(Br)c1 was < 3.00

Tested system human NTCP (Homo sapiens); pIC50 recorded for O=Cc1cccc([C@@H]([C@H](Nc2ccccn2)c2ccccc2)[C@@H](O)c2ccccc2)n1 was 4.47 to 4.89

Tested system human NTCP (Homo sapiens); pIC50 recorded for O[C@H](c1ccccc1)[C@@H](c1ccc2ccccc2n1)[C@H](Nc1ccccn1)c1ccccc1 was < 3.00

More entries:
Tested system human NTCP (Homo sapiens); pIC50 recorded for COc1ccc([C@H](O)[C@H](c2ccccn2)[C@@H](Nc2ccccn2)c2ccccc2)cc1 was 2.91 to 3.47

Tested system human NTCP (Homo sapiens); pIC50 recorded for O[C@@H](c1ccccc1)[C@@H](c1ccccn1)[C@H](Nc1ccccn1)c1cccc2ccccc12 was 2.91 to 3.38

###

target: human NTCP (Homo sapiens, UniProt Q14973); construct: expressed in transfected cells; experiment: [3H]taurocholic acid ([3H]TC) transport inhibition in NTCP-HEK293 cells; type: cell-based; conditions: 1 µM [3H]TC, NTCP-HEK293 cells; read-out: IC50 taurocholic acid uptake inhibition (single value)
parameter_measured: IC50 (µM)
Express the result in µM but write the number alone.

Note to self: IC50 recorded for O[C@H](c1ccc([C@@H](O)[C@@H](c2ccccn2)[C@H](Nc2ccccn2)c2ccccc2)cc1)[C@@H](c1ccccn1)[C@H](Nc1ccccn1)c1ccccc1 was 490

Note to self: IC50 recorded for COc1ccc([C@H](O)[C@H](c2ccccn2)[C@@H](Nc2ccccn2)c2ccccc2)cc1 was 780

Switching to the query record.
Note to self: IC50 recorded for O=Cc1cccc([C@@H]([C@H](Nc2ccccn2)c2ccccc2)[C@@H](O)c2ccccc2)n1 was 24
